Ref: patent US20200375987A1

Hi! I'm sharing some pIC50 results obtained with IMP-1 (Serratia marcescens, UniProt P52699).
Sequence (P52699 19-246, looked up, species assumed): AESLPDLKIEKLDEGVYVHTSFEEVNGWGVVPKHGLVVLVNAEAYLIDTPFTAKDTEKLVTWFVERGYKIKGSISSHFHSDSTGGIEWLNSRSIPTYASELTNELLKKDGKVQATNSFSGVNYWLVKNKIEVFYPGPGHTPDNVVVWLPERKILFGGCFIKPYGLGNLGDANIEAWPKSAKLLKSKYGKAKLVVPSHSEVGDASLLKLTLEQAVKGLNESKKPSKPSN
The meaning of pIC50 here: minus log10 of the concentration in molar units.

// solved cases for pIC50 follow
- SMILES: "NC[C@@H](O)CNS(=O)(=O)c1ccc(N2CCCn3ccnc32)c(-c2nnn[nH]2)c1S(N)(=O)=O"
  pIC50: 8.23
- SMILES: "CCOC(=O)c1cn2c(n1)N(c1ccc(S(=O)(=O)N[C@@H]3CCNC3)c(S(N)(=O)=O)c1-c1nn[nH]n1)CCC2"
  pIC50: 9.02

Below: the item to evaluate.
[Q] GET pIC50 where system = IMP-1 (Serratia marcescens, UniProt P52699) and item = NS(=O)(=O)c1c(S(=O)(=O)N[C@@H]2CCNC2)ccc(N2CCn3nc(C(F)(F)F)nc3C2)c1-c1nn[nH]n1
[A] 8.66
